The following compounds are listed with their measured log10(IC50) values.
- assayOverview: Antiproliferative activity against human WM164 cells after 48 hrs by SRB assay
- Assay type: functional, cell-based
- setupConditions: WM164, 48 h
In our notation, the value equals log10 of IC50 in nM.

Returns the measured log10(IC50) for the input compound. Input: CCCCCCCCC/C=C\CCCCCCCNC(=O)[C@@H]1CSC(c2cc(OC)c(OC)c(OC)c2)N1 (mixture of isomers)
3.11

Next compound up: CCCCCCCCCCCCCCCCNC(=O)[C@@H]1CSC(c2ccc(OC)cc2)N1 (mixture of isomers)
3.00

Next: CCCCCCCCC/C=C\CCCCCCCNC(=O)[C@@H]1CSC(c2ccccc2)N1 (mixture of isomers)
3.38

----------
- measurementTarget: Lysophosphatidic acid receptor 1 (Homo sapiens, UniProt Q92633)
- Sequence (Q92633 whole entry): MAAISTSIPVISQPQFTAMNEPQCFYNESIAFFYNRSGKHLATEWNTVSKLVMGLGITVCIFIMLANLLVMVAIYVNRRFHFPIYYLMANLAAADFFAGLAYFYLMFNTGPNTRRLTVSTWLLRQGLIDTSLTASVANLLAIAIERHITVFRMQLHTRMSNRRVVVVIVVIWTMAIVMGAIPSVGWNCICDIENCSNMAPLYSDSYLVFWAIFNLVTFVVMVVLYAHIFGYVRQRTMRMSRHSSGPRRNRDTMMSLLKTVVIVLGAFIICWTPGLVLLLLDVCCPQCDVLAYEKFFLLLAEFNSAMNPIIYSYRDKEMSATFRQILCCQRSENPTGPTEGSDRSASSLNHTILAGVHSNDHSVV
- assayOverview: Antagonist activity at LPA1 expressed in human chem1 cells assessed as effect on intracellular calcium mobilization by FLIPR assay
measuredMetric: IC50 (nM)
Use nM as the unit, but write only the number.

GET /values?readout=IC50&item= Cc1noc(-c2ccc(CSCCC(=O)O)cc2)c1NC(=O)OC(C)c1ccccc1Cl (stereo unspecified)
46

----------
- assayOverview: Antiproliferative activity against human WM164 cells after 48 hrs by SRB assay
- Type: functional, cell-based
- setupConditions: WM164, 48 h
Consider the following compounds and their measured pIC50 readings.
Scale explanation: pIC50 corresponds to minus log10 of a concentration expressed in moles per litre.

[
  {
    "compound": "CNC(=O)c1cc(Oc2ccc(NC(=O)Nc3ccc(Cl)c(C(F)(F)F)c3)cc2)ccn1",
    "pIC50": 5.30
  },
  {
    "compound": "CCCCCCCCCCCCCCCCCCN(C)C(=O)[C@@H]1CSC(c2ccc(NC(C)=O)cc2)N1 (mixture of isomers)",
    "pIC50": 4.97
  },
  {
    "compound": "CCCCCC/C=C\\CCCCCCCCNC(=O)[C@@H]1CSC(c2ccc(NC(C)=O)cc2)N1 (mixture of isomers)",
    "pIC50": 5.70
  }
]

What value of measured pIC50 is listed for CCCCCCCCCCCCCCCCNC(=O)[C@@H]1CSC(c2ccccc2)N1 (mixture of isomers) ?
6.15

----------
pIC50 values for the compounds below.
- assayOverview: Antiproliferative activity against mouse B16-F1 cells after 48 hrs by SRB assay
- Type: functional, cell-based
- setupConditions: B16-F1, 48 h
Reminder that pIC50 means the negative base-10 logarithm of the concentration expressed in mol/L.

See these solved cases before continuing.
[
  {
    "compound": "CCCCCC/C=C\\CCCCCCCCNC(=O)[C@@H]1CSC(c2ccc(NC(C)=O)cc2)N1 (mixture of isomers)",
    "experimentalValue": 5.68
  },
  {
    "compound": "CC(=O)Nc1ccc(C2N[C@H](C(=O)NC3C4CC5CC(C4)CC3C5)CS2)cc1 (mixture of isomers)",
    "experimentalValue": 3.97
  },
  {
    "compound": "CCCCCCCCC/C=C/CCCCCCCNC(=O)[C@@H]1CSC(c2cc(OC)c(OC)c(OC)c2)N1 (mixture of isomers)",
    "experimentalValue": 5.49
  },
  {
    "compound": "CCCCCCCCCCCCCCCCNC(=O)[C@@H]1CSC(c2ccc(NC(C)=O)cc2)N1C(C)=O (mixture of isomers)",
    "experimentalValue": 4.82
  }
]

Consider the compound CC(=O)Nc1ccc(C2N[C@H](C(=O)Nc3ccc(-c4ccccc4)cc3)CS2)cc1 (mixture of isomers) and give its measured pIC50.
5.24

How about this compound: CCCCCCCCC/C=C\CCCCCCCNC(=O)[C@@H]1CSC(c2ccc(OC)c(OC)c2)N1 (mixture of isomers)
5.48

Try the compound CC(=O)Nc1ccc(C2N[C@H](C(=O)Nc3ccc4cc5ccccc5cc4c3)CS2)cc1 (mixture of isomers)
5.25

Field entry: CCCCCCCCCCCCCCCCNC(=O)[C@@H]1CSC(c2ccc(NC(C)=O)cc2)N1 (mixture of isomers)
5.66

Input CCCCCCCCC/C=C\CCCCCCCNC(=O)[C@@H]1CSC(c2ccccc2)N1 (mixture of isomers)
5.22

And for CCCCCCCCCCCCCCCCCCN(C)C(=O)[C@@H]1CSC(c2ccc(NC(C)=O)cc2)N1 (mixture of isomers) ?
4.72

Now the compound CCCCCCCCCCCCCCCCCCNC(=O)[C@@H]1CSC(c2ccccc2)N1 (mixture of isomers)
4.81

Another: CCCCCCCCCCCCCCCCNC(=O)[C@@H]1CSC(c2cccc(OC)c2)N1 (mixture of isomers)
5.52

// query: CCCCCCCCC/C=C\CCCCCCCNC(=O)[C@@H]1CSC(c2cc(OC)c(OC)c(OC)c2)N1 (mixture of isomers)
5.33

For CCCCCCCCCCCCCCCCNC(=O)[C@@H]1CSC(c2ccc(NC(=O)CCl)cc2)N1 (mixture of isomers) then?
4.03

Now this one: CCCCCCCCCCCCCCCCNC(=O)[C@@H]1CSC(c2cccc(NC(C)=O)c2)N1 (mixture of isomers)
5.66
